system: muscarinic receptors; experiment: (-)3H-QNB binding to rat cerebral cortex homogenates with and without Cu++ treatment; details: without pretreatment
Rule: %H (% of high affinity state) below 10% gives yes (1). Equal to or above 10% gives no (0).

q: Is it true that %H (% of high affinity state) reported for CN1CCN(CC(=O)N2c3ccccc3C(=O)Nc3cccnc32)CC1 [Pirenzepine] is less than 10%?
a: no (0)

q: Quick check: %H (% of high affinity state) of C[N+](C)(C)CC#CCOC(=O)Nc1cccc(Cl)c1 [McN-A-343] under 10%?
a: no (0)

q: is_below(%H (% of high affinity state), 10%) for CC1=NCC2(CCN(C)CC2)O1 [AF150] ?
a: no (0)

q: # check: %H (% of high affinity state) < 10% for O=C1CCCN1CC#CCN1CCCC1 [Oxotremorine]
a: no (0)

q: Item CC1OC2(CS1)CN1CCC2CC1 (stereo not drawn) [AF102B, reference compound] : %H (% of high affinity state) beneath 10%, strictly?
a: yes (1)

q: Does the reported %H (% of high affinity state) of CN1[C@@H]2C[C@@H](OC(=O)[C@H](CO)c3ccccc3)C[C@H]1[C@@H]1O[C@@H]12 [Scopolamine] stay below 10%?
a: yes (1)
